- Tested on: U2OS
- method: Multiplex assay against U2OS
- Format: toxicity, cell-based
- reported_conditions: human, 48 h, 10 µM, compound concentration 10 uM, replicate 2
Label yes when Population Hoechst High Intensity Objects (%) >= 8%; otherwise no.

compound: CCCN1CCC[C@@H]2Cc3n[nH]cc3C[C@H]21.Cl [QUINPIROLE HYDROCHLORIDE]
assay_system: U2OS
label_class: no
--
compound: CN(C)c1ccnc2sc3c(=O)n(N4CCCCCC4)cnc3c12
assay_system: U2OS
label_class: yes
--
compound: CC(C)(C)c1ccc(S(=O)(=O)Nc2ccc(Cl)cc2C(=O)c2cc[n+]([O-])cc2)cc1 [VERCIRNON]
assay_system: U2OS
label_class: no
--
compound: CC1(COc2ccc3c(c2)ncn3-c2ccc3cccc(N4CCC(N)CC4)c3n2)COC1 [CRENOLANIB]
assay_system: U2OS
label_class: yes
--
compound: N#Cc1c(N)nc(SCc2csc(-c3ccc(Cl)cc3)n2)c(C#N)c1-c1ccc(OCCO)cc1 [CAPADENOSON]
assay_system: U2OS
label_class: no

====

- System: U2OS
- method: Multiplex assay against U2OS
- Format: toxicity, cell-based
- reported_conditions: human, 12 h, 1 µM, compound concentration 1 uM, replicate 2
Threshold check on Population Fragmented Nuclei (%): strictly below 20% is true (1); on or above 20% is false (0).

compound: O=C(O)c1cc2ccccc2c(Cc2c(O)c(C(=O)O)cc3ccccc23)c1O
label_class: true (1)

compound: Oc1c(CN2CCN(c3ccccn3)CC2)cc(Cl)c2cccnc12
label_class: true (1)

compound: O=C(NCCO)c1cccc(-c2cc(Nc3ccc(OC(F)(F)F)cc3)ncn2)c1
label_class: true (1)

compound: CSCC[C@H](NC=O)C(=O)N[C@@H](CC(C)C)C(=O)N[C@@H](Cc1ccccc1)C(=O)O
label_class: true (1)

compound: O=C(O)Cc1ccccc1Nc1c(Cl)cccc1Cl
label_class: true (1)

compound: Cc1ccc(C(C)(O)c2nc3ccccc3s2)c(C)c1 (stereo not drawn)
label_class: true (1)

compound: C[C@H]1[C@H]2CC[C@H]3[C@@H]4CC=C5C[C@@H](N(C)C)CC[C@]5(C)[C@H]4CC[C@]23CN1C
label_class: true (1)

compound: CC[C@H]1OC(=O)[C@H](C)[C@@H](O[C@H]2C[C@@](C)(OC)[C@@H](O)[C@H](C)O2)[C@H](C)[C@@H](O[C@@H]2O[C@H](C)C[C@H](N(C)C)[C@H]2O)[C@@]2(C)CC(C)=C(O2)[C@H](C)[C@@H](O)[C@]1(C)O
label_class: false (0)

compound: Cc1nc2ccc(Oc3ccc(F)cc3)cc2c(=O)n1C[C@H]1CCCN(C(C)C)C1.Cl
label_class: true (1)

compound: CSc1ccccc1N1CCN(CCCCCC(=O)NC2CCCc3ccccc32)CC1.Cl (stereo not drawn)
label_class: false (0)

compound: O=C(NCC(=O)N1CC[C@H](N[C@H]2CC[C@@](O)(c3ccc(-c4ncccn4)cn3)CC2)C1)c1cccc(C(F)(F)F)c1
label_class: true (1)

compound: O=S(=O)(c1ccccc1)c1cnc2c(N3CCNCC3)cccc2c1 [INTEPIRDINE]
label_class: true (1)

compound: Cc1ccc(/C(=C\CN2CCCC2)c2ccccn2)cc1
label_class: true (1)
